reported-property: melting point (°C)

compound="CC1CCCCC1c1cc2ccc(OS(N)(=O)=O)cc2s1 (centres unmarked)" reported_property="melting point" readout_units=°C recorded_measurement=110
compound="CC1(C)CCCC1c1cc2ccc(OS(N)(=O)=O)cc2s1 (centres unmarked)" reported_property="melting point" readout_units=°C recorded_measurement=72
compound="CC1CCCCC1C1=Cc2ccc(OS(N)(=O)=O)cc2S1(=O)=O (centres unmarked)" reported_property="melting point" readout_units=°C recorded_measurement=92
compound=NS(=O)(=O)Oc1ccc2cc(C3CCCCCCCCC3)sc2c1 reported_property="melting point" readout_units=°C recorded_measurement=98
compound="CC1CCC(C2=Cc3ccc(OS(N)(=O)=O)cc3S2(=O)=O)CC1 (centres unmarked)" reported_property="melting point" readout_units=°C recorded_measurement=170
compound=CCCC1=Cc2ccc(OS(N)(=O)=O)cc2S1(=O)=O reported_property="melting point" readout_units=°C recorded_measurement=159
compound=CCCCCCc1cc2ccc(OS(N)(=O)=O)cc2s1 reported_property="melting point" readout_units=°C recorded_measurement=125
compound=Cc1c(OS(N)(=O)=O)ccc2c1S(=O)(=O)C(C1CCCCCC1)=C2 reported_property="melting point" readout_units=°C recorded_measurement=90
compound=CCCCCCC1=Cc2ccc(OS(N)(=O)=O)cc2S1(=O)=O reported_property="melting point" readout_units=°C recorded_measurement=98
compound=NS(=O)(=O)Oc1ccc2cc(CC3CCCCC3)sc2c1 reported_property="melting point" readout_units=°C recorded_measurement=115
compound=NS(=O)(=O)Oc1ccc2cc(C3CCCCCC3)sc2c1 reported_property="melting point" readout_units=°C recorded_measurement=132
compound=NS(=O)(=O)Oc1ccc2c(c1)S(=O)(=O)C(C1CCCCCCCCC1)=C2 reported_property="melting point" readout_units=°C recorded_measurement=102
compound=CCCc1cc2ccc(OS(N)(=O)=O)cc2s1 reported_property="melting point" readout_units=°C recorded_measurement=112
compound=NS(=O)(=O)Oc1ccc2cc(C3CCCC3)sc2c1 reported_property="melting point" readout_units=°C recorded_measurement=110
